Target: human GPR61 (Homo sapiens, UniProt Q9BZJ8)
Construct: expressed in transfected cells; host or cells: CHO-K1, transient (Fugene6)
Sequence (Q9BZJ8 whole entry): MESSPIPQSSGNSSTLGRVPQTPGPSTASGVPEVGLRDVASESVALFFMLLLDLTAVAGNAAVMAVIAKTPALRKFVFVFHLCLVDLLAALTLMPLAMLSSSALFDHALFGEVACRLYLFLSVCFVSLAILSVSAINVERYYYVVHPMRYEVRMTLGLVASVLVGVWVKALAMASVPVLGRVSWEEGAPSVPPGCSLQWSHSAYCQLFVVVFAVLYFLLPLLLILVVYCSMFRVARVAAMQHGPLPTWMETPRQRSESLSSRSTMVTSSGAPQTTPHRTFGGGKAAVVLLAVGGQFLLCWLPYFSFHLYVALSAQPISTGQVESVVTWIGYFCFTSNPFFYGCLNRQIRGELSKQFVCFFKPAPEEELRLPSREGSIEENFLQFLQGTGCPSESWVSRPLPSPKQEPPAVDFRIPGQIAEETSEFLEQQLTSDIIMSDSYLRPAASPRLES
Assay: Functional cAMP assay (HTRF), transiently transfected CHO-K1 cells, wild-type GPR61 (untagged and HiBit-tagged)
Assay type: cell-based
Details: wild-type GPR61, untagged and HiBit-tagged; read-out: IC50 in the functional cAMP assay
pIC50: −log10 of the molar value.
measure.name: pIC50

INSERT INTO results (sample_smiles, target_entity, result) VALUES
  ('CCOc1cc(C)nc(N(CCOC)S(=O)(=O)c2ccc(NCc3c(F)cncc3F)nc2OC)n1', 'human GPR61 (Homo sapiens, UniProt Q9BZJ8)', '7.96 to 8.00');
